The values you see were collected from paper PMC5517563.

molecular target: EhACK (Entamoeba histolytica acetate kinase) (Entamoeba histolytica, UniProt C4M1C3, D272A/M324I/Q323G/R274A); assay: biochemical

[
  {
    "record smiles": "Nc1ncnc2c1ncn2[C@@H]1O[C@H](COP(=O)(O)OP(=O)(O)OP(=O)(O)O)[C@@H](O)[C@H]1O",
    "IC50 / µM": 2400
  }
]

====

target: MtACK (Methanosarcina thermophila acetate kinase) (Methanosarcina thermophila); construct: gene ackA; recombinant, produced in E. coli Rosetta2 (DE3) pLysS; test: reverse modified hydroxamate assay ([…] nm); type: biochemical; conditions: read-out: ATP IC50 (mM) / Acetate-forming direction
Sequence (P38502 whole entry): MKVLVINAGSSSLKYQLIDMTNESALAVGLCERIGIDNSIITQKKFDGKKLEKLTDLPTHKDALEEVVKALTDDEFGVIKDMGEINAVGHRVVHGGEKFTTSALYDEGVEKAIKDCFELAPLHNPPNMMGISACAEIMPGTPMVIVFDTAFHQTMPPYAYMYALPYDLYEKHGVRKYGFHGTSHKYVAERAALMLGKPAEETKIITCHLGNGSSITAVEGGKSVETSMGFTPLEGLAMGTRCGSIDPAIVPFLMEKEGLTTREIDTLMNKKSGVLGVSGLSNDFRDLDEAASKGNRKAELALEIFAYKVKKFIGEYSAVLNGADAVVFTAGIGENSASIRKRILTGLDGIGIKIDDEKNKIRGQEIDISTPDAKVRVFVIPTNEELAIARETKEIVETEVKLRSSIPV

[
  {
    "record smiles": "O=P(O)(O)OP(=O)(O)O",
    "test target": "MtACK (Methanosarcina thermophila acetate kinase) (Methanosarcina thermophila)",
    "IC50, mM": 3.3
  }
]
